# System: HIV-1 L100I mutant strain
# ASSAY INFO: microbe, parasite or virus in culture
# CONDITIONS USED: Human immunodeficiency virus 1, MT4, read-out: EC50 (anti-HIV activity)
EXPERIMENTAL ENDPOINT: EC50

Request: Recorded EC50 of Cc1cc(/C=C/C#N)cc(C)c1Oc1nc(NC2CCN(Cc3ccc(S(N)(=O)=O)cc3)CC2)nc2sccc12 [DK6-1] , please.
Result: < 8 nM
